Assay: Cytotoxic Profiling in HEK 293 Cell Line of Diverse Libraries Using Quantitative High-Throughput Screening; also: nearly all actives have a fitted effect of over 60% in size
Settings: HEK 293 viability, ATP luminescence (CellTiter-Glo), 48-72 h; series mostly up to 115 µM
The campaign covered roughly 94,000 compounds. About 6,200 (6.6%) were called active. Not shown: some 31% with an inconclusive outcome. Calls follow the shape of the dose curve; as a rule, active = well fitted inhibition curve with a large enough effect; inconclusive = small, poorly fitted or top-dose-only effect; inactive = flat fitted curve, though single readings scatter. For the sample, actives were picked, then their nearest neighbours and some compounds at random.
Possible outcomes: TRUE for active, FALSE for inactive

INSERT INTO measurements (compound, label_class) VALUES
  ('COc1ccc(-c2[nH]ncc2CN2CCCC(C(=O)NCc3ccccc3)CCNC(=O)CC2)cc1 (stereo not given)', 'FALSE'),
  ('NC(=O)[C@H](CCC(=O)O)NC(=O)[C@@]1(O)C[C@@H](O)[C@H](O)[C@@H](NS(=O)(=O)c2cccc(C(F)(F)F)c2)C1', 'FALSE'),
  ('CCn1ncc(N2CCC(NC(=O)C(C)c3ccccc3)CC2)cc1=O (stereo not given)', 'FALSE'),
  ('CN1C[C@@H](NC(=O)c2ccccc2)C[C@H]1c1nc(-c2ccccc2)no1', 'FALSE'),
  ('CN1CCN(C(=O)c2ccc3c(c2)OCCO3)CC1=O', 'FALSE'),
  ('Cc1ccc(OCCC2CCN(C(=O)CCN3C(=O)NC(C)(C)C3=O)C2)cc1 (stereo not given)', 'FALSE'),
  ('O=C(c1cccnc1)N1CCC(Nc2cccnc2)C1 (stereo not given)', 'FALSE'),
  ('CN(C)c1ccc(CNCC2(COc3ccc(S(C)(=O)=O)cc3)C[C@@H](O)[C@@H](O)C2)cc1 (stereo not given in full)', 'FALSE'),
  ('COc1cc2c(cc1C(=O)N1CCC3(CCCN(C)C3=O)C1)CCC2 (stereo not given)', 'FALSE'),
  ('CN1C[C@@H](NC(=O)COc2ccccc2)C[C@H]1c1nc(-c2ccc3c(c2)OCO3)no1', 'TRUE'),
  ('CCc1ocnc1C(=O)NC1CC(c2cc(N3CCC(O)C3)ncn2)C1 (stereo not given)', 'FALSE'),
  ('O=C(Nc1ccc(Oc2ccccc2)cc1)O[C@@H]1CO[C@H]2[C@@H]1OC[C@@H]2NS(=O)(=O)c1cccs1', 'TRUE'),
  ('CN1C[C@@H](NC(=O)CC(C)(C)C)C[C@H]1c1nc(Cc2ccccc2)no1', 'FALSE'),
  ('CN1C[C@@H](NC(=O)c2ccc(C(C)(C)C)cc2)C[C@H]1c1nc(-c2ccc3ccccc3c2)no1', 'TRUE'),
  ('O=C(c1cccc(F)c1)N1CCCC(CN2CCOCC2)CC1 (stereo not given)', 'FALSE'),
  ('CN1C[C@@H](NC(=O)c2cnccn2)C[C@H]1c1nc(-c2ccc3c(c2)OCO3)no1', 'FALSE'),
  ('COc1ccc(NC(=O)c2cc3c(N(C)Cc4ccccc4)nc(C)cn3n2)cc1F', 'FALSE'),
  ('COC(=O)N1CCC2(CC1)C(=NC1CCCC1)NC(=O)N2c1cc(F)cc(F)c1', 'FALSE'),
  ('O=C(Nc1ccccc1)O[C@@H]1CO[C@H]2[C@@H]1OC[C@@H]2NS(=O)(=O)c1cccc2cccnc12', 'FALSE'),
  ('COc1ccccc1NC(=O)N1CCC2(CCNC(=O)CC2)CC1', 'FALSE');
